system.name: CaBzz1-D1
test.summary: SPOT peptide array binding signal intensity (averaged, normalized) (arbitrary units (background-subtracted, floor 0; scale differs between SH3 domains)); higher = stronger binding of the SH3 domain to the peptide
Classes (SPOT peptide array binding signal intensity): low (below 100), moderate (100 to below 200), high (200 or more)

1) FPGKKSPRLPHRNKK = moderate
2) GERSRPLVISILSSA = high

Input: Band of SRQAIPPPVPNRPGG ?
Output: high

Input: Moving on to the next binder: NLPKRKPPKLQGPFS
Output: moderate

Input: Param item: APPPPPRRATPEKKP
Output: high

Input: Next up: GATNNAPTLPKRKNP
Output: high

Input: Let us now turn to FYNRTAFQLPGDARV
Output: low

Input: And the next one, LKRITSPPLPPRADS ?
Output: high

Input: Then what about the binder RVRKTHVPASKRPSG ?
Output: low
